# assaySystem: T1, Human GHR-Fc-10x His (extracellular region of human growth hormone receptor fused to human Fc) (human, UniProt P10912 50-256)
# T1 construct: Captured by its 10x His-tag on a Ni-NTA sensor chip for SPR; not shown: human Fc domain of vector pAB1200 with its linker; 10x His-tag replacing the AviTag
# T1 sequence (looked up): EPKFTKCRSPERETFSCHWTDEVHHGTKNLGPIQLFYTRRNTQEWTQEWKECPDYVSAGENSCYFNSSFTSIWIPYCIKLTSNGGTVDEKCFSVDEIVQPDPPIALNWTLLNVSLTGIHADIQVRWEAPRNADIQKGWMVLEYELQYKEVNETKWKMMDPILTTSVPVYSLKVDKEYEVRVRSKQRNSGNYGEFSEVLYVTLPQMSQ
# experimentNotes: SPR, GHR-Fc-10xHis captured on Ni-NTA chip, Fab as analyte, 1:1 fit
koff by entry:
Please respond with the number in s⁻¹ and leave the unit unwritten.

binder	koff [s⁻¹]
GHR2 Fab (Fab, V domains shown, Fab) VH: EVQLVESGGGLVQPGGSLRLSCAASGFNLYYSSIHWVRQAPGKGLEWVAYISPSYGSTSYADSVKGRFTISADTSKNTAYLQMNSLRAEDTAVYYCARYYDYSWPWYWHGGGPAFDYWGQGTLVTVSS VL: DIQMTQSPSSLSASVGDRVTITCRASQSVSSAVAWYQQKPGKAPKLLIYSASSLYSGVPSRFSGSRSGTDFTLTISSLQPEDFATYYCQQYEEYPLITFGQGTKVEIKR	0.000873

Please turn your attention to the following entry.
Kindly note the recorded koff for GHR11 Fab (Fab, V domains shown, Fab) VH: EVQLVESGGGLVQPGGSLRLSCAASGFNLSYYYIHWVRQAPGKGLEWVASIYSSSGYTYYADSVKGRFTISADTSKNTAYLQMNSLRAEDTAVYYCARQYPYSWSSYGFSSGALDYWGQGTLVTVSS VL: DIQMTQSPSSLSASVGDRVTITCRASQSVSSAVAWYQQKPGKAPKLLIYSASSLYSGVPSRFSGSRSGTDFTLTISSLQPEDFATYYCQQYFAYYSPITFGQGTKVEIKR , which is 0.000587
